Listed here: items and their measured %Inh.
Tested on: DYRK2;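 note: KINOMEscan kinase panel screen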
testConditions: concentration: 1 μM, replicates: in singlicate; n = 1
The reply should contain only the number, in %.

// known answers, use as guide
compoundStructure | systemTested | quantityMeasured | recordedNumber
COc1ccc(S(=O)(=O)NC2CCN(c3cc(C)nc(Nc4cccc(C#N)c4)n3)CC2)cc1.O=C(O)C(F)(F)F | DYRK2 | %Inh | 12
COc1cc2c(cc1OCCN1CCN(C)CC1)ncc1c3ccc(C#N)cc3[nH]c21 | DYRK2 | %Inh | 60
CN(C1=C(c2ccccc2)C(=O)NC1=O)c1ccccc1 | DYRK2 | %Inh | 10
Cc1cccc(Cn2ccn3c(=O)cc(N4CCOCC4)nc23)c1 | DYRK2 | %Inh | 12
N#Cc1ccc(-c2cc(-c3c[nH]nc3-c3ccccn3)ccn2)cc1 | DYRK2 | %Inh | 0

IN: Data request, read-out %Inh, for `COC(=O)Nc1nc2cc(Oc3ccc(NC(=O)Nc4cc(F)ccc4F)cc3)ccc2[nH]1.Cl`
OUT: 0

IN: Data request, read-out %Inh, for `CCCCCc1nc2c(N)ncnc2n1CCCCC`
OUT: 27

IN: Data request, read-out %Inh, for `Cc1c2ccc(N(C)c3ccnc(Nc4cccc(S(N)(=O)=O)c4)n3)cc2nn1Cc1ccccc1.Cl.Cl`
OUT: 0
